Tested on: BJeLR fibroblast viability, Alamar Blue fluorescence, 48 h
TEST PROTOCOL: BJeLR fibroblast growth inhibition, viability readout – cell-based, alamar blue fluorescence, 48 h, cherrypicked samples, dose response (AID 2610);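 also: BJ fibroblasts with hTERT plus SV40 large and small T and HRAS V12; EC50 for loss of viable cells so potency reflects cytotoxic compounds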
Inconclusive results are not listed. Activity calls are given as the source filed them.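 The calls were made as follows: active = EC50 no more than tenfold above the top concentration tested, with valid fit and all samples agreeing; inconclusive = flat fit at 30 to 70% inhibition, poor fit, or split samples; inactive = EC50 beyond tenfold the top concentration tested.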
Would you mind answering with one of these outcomes? active, inactive

CC1(C)N=C(N)N=C(N)N1c1ccccc1 : inactive
c1ccc(-c2ccc(-c3nc(-c4ccccn4)no3)cc2)cc1 : inactive
O=C(NCc1cccnc1)c1ccc(-c2cc3ccccc3oc2=O)cc1 : active
CN(C)CCCNc1c2ccccc2nc2ccccc12 : active
CCOCCOC(=O)c1[nH]c2c(c1C)C(=O)CC(c1ccccc1)C2 (stereo not drawn) : active

Which result was noted for this molecule in the test: `COc1ccc(-c2coc3cc4oc(=O)c5ccccc5c4cc23)cc1F`
active

Which result was noted for this molecule in the test: `CCN1C/C(=C/c2ccc(OC)c(O)c2)C(=O)/C(=C/c2ccc(OC)c(O)c2)C1`
active

Which result was noted for this molecule in the test: `Cc1cccc(N2CCN(C(=S)Nc3ccc4nc(N5CCN(C)CC5)cc(C)c4c3)CC2)c1C`
active

Which result was noted for this molecule in the test: `COc1ccc(C)cc1NS(=O)(=O)c1ccc(-c2cnc(C3CC3)o2)cc1`
active

Which result was noted for this molecule in the test: `O=S(=O)(c1ccc2c(c1)C(=NO)c1cc(S(=O)(=O)N3CCCCC3)ccc1-2)N1CCCCC1`
active

Which result was noted for this molecule in the test: `CNC(=S)N/N=C/c1ccc(-c2ccc(C(=O)O)cc2)o1`
inactive

Which result was noted for this molecule in the test: `COc1ccc(-c2cc3nc(C)cc(N)n3n2)cc1`
inactive

Which result was noted for this molecule in the test: CC1C/C(=C/c2ccncc2)C(=O)/C(=C/c2ccncc2)C1 (stereo not drawn)
active
